target under test: Paer-ecTPP (Pseudomonas aeruginosa, UniProt B3G2E1)
Sequence (B3G2E1 entry or part of it): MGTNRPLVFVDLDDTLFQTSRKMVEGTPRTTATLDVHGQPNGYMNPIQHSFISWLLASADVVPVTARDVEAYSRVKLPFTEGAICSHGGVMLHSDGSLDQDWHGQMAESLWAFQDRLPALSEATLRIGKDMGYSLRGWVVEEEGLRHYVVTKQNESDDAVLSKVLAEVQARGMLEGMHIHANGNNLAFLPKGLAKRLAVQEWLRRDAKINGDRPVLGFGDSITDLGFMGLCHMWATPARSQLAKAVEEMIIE
experimental details: Phosphatase end-point assay, extra-chromosomal TPP from P. aeruginosa
settings: Paer-ecTPP, phosphatase end-point assay
property measured: IC50 (nM)
Enter your answer as a number in nM; do not include the unit.

## Task # return recorded IC50 for input O=C1c2ccccc2C(=O)N1Sc1ccccc1 [Compound 1, N-(phenylthio)phthalimide]
## Result 2100
